- Target Or Test System: A. aegypti CAPA receptor (CAPAr, anti-diuretic hormone receptor) (Aedes aegypti, UniProt A0A7D5D2Z2)
- Sequence (A0A7D5D2Z2 1-712): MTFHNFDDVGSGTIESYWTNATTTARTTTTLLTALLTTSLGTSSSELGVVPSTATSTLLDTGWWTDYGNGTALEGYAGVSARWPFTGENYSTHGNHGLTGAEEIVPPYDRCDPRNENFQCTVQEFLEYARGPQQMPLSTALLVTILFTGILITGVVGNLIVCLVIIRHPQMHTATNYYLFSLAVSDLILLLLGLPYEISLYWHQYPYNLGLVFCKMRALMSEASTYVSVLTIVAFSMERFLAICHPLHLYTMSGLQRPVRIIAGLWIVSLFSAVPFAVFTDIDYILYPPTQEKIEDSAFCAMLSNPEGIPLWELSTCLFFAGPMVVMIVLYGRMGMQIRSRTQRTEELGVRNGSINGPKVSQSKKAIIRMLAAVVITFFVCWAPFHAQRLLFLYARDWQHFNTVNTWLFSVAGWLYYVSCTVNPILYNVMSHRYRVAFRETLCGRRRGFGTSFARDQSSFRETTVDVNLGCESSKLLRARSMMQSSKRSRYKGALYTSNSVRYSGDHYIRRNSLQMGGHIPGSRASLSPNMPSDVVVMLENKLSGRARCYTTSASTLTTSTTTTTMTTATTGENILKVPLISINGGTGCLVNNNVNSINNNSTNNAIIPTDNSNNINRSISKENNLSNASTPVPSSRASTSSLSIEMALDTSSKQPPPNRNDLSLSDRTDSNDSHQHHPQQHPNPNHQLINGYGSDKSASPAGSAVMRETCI
- Run Description: Heterologous receptor functional activation bioluminescence assay (CHO-K1 aequorin)
- Assay type: cell-based
- Protocol Conditions: CHO-K1 cells stably expressing aequorin, A. aegypti CAPAr transiently expressed (48 h post-transfection), coelenterazine h, kinetic luminescence for 20 sec; tested up to 10 μM; read-out: EC50 on CAPAr
No end group written: not given here.
Assay Endpoint: EC50

Looking up AGNSGANSGMWFGPRL-NH2 [PK1] , I see its EC50 listed as > 10 µM
